Values were extracted from patent US20230192789A1.

Molecular target: T1, recombinant HDM2 (amino acids 17-125 of SEQ ID NO:103) (human, UniProt Q00987 17-125)
T1 construct: also called MDM2; not shown: thrombin cleavage site (pET28a vector)
T1 sequence (Q00987 other isoform, or with tags, fused parts or gaps): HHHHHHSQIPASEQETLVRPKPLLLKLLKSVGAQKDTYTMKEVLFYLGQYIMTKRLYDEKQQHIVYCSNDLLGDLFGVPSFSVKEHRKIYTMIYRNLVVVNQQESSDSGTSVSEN
Test: streptavidin pull-down of biotinylated peptide with recombinant HDM2 and HDMX (1:1 mixture per paragraph 301), western blot
Bridges are numbered along the chain shown (N, C = ends). Where no end group is shown, it is not given here. [ ]: non-standard residue; d: D form. The star is where a group is joined. Biotin = O=C1N[C@H]2[C@H](CS[C@H]2CCCCC(=O)*)N1; R8 = C=CCCCCCC[C@@](C)(N)C(=O)O; S5 = C=CCCC[C@](C)(N)C(=O)O
measurementKind: binding result

>>> measvalue("Biotin-LTF[R8]EYWAQY[S5]SAA-NH2 (staple 4-11; SMILES CC(C)C[C@H](NC(=O)CCCC[C@@H]1SC[C@@H]2NC(=O)N[C@@H]21)C(=O)N[C@H](C(=O)N[C@@H](Cc1ccccc1)C(=O)N[C@]1(C)CCCCCCC=CCCC[C@@](C)(C(=O)N[C@@H](CO)C(=O)N[C@@H](C)C(=O)N[C@@H](C)C(N)=O)NC(=O)[C@H](Cc2ccc(O)cc2)NC(=O)[C@H](CCC(N)=O)NC(=O)[C@H](C)NC(=O)[C@H](Cc2c[nH]c3ccccc23)NC(=O)[C@H](Cc2ccc(O)cc2)NC(=O)[C@H](CCC(=O)O)NC1=O)[C@@H](C)O) [ATSP-7041 B26Y]")
"no binding"
>>> measvalue("Biotin-LTF[R8]EYWAQW[S5]SAA-NH2 (staple 4-11; SMILES CC(C)C[C@H](NC(=O)CCCC[C@@H]1SC[C@@H]2NC(=O)N[C@@H]21)C(=O)N[C@H](C(=O)N[C@@H](Cc1ccccc1)C(=O)N[C@]1(C)CCCCCCC=CCCC[C@@](C)(C(=O)N[C@@H](CO)C(=O)N[C@@H](C)C(=O)N[C@@H](C)C(N)=O)NC(=O)[C@H](Cc2c[nH]c3ccccc23)NC(=O)[C@H](CCC(N)=O)NC(=O)[C@H](C)NC(=O)[C@H](Cc2c[nH]c3ccccc23)NC(=O)[C@H](Cc2ccc(O)cc2)NC(=O)[C@H](CCC(=O)O)NC1=O)[C@@H](C)O) [ATSP-7041 B26W]")
"no binding"
>>> measvalue("LTF[R8]EYWAQE[S5]SAA-NH2 (staple 4-11; not fully specified; printed as LTF8EYWAQEXSAA, also called ATSP B26E; LTF8EYWAQEXSAA) [ATSP-7041 B26E]")
"no binding"
